The entries below are paired with their reported folding stability dG.
B1: 5KPH (parent)
chain: EEKRQVKQVAKEKLLEQSPNSKVQVRRVQKQGNTIRVELELRTNGKKENYTVEVERQGNTWTVKRITRT

# Variants of: B1
# test.summary: folding stability dG (cDNA display proteolysis); higher = more stable
# measurement.setup: PBS, room temperature
recorded.metric: folding stability dG

1. E16A :: 3.8 kcal/mol
2. K13N :: 2.71 kcal/mol
3. N33D :: 3.9 kcal/mol
4. V23W :: 2.67 kcal/mol
5. E12H :: 3.53 kcal/mol
6. T43G :: 3.6 kcal/mol
7. K46T :: 3.85 kcal/mol
8. E12M :: 3.67 kcal/mol
9. K47L :: 4.04 kcal/mol
10. V9I :: 4.22 kcal/mol
11. T67K :: 3.55 kcal/mol
12. Q57K :: 3.83 kcal/mol
13. G32M :: 2.99 kcal/mol
14. R36W :: 4.21 kcal/mol
15. K7F :: 4.07 kcal/mol
16. Q5R :: 4.19 kcal/mol
17. V9N :: 2.18 kcal/mol
18. V23N :: 1.26 kcal/mol
19. R68P :: 3.54 kcal/mol
20. K3N :: 4.25 kcal/mol
21. K22N :: 3.62 kcal/mol
22. P19T :: 2.69 kcal/mol
23. R27A :: 3.61 kcal/mol
24. E40K :: 3.32 kcal/mol
25. E55N :: 2.91 kcal/mol
26. E53I :: 4.15 kcal/mol
27. S21P :: 2.37 kcal/mol
28. N49K :: 4.23 kcal/mol
29. T34M :: 3.85 kcal/mol
30. N59L :: 3.68 kcal/mol
31. E53R :: 2.69 kcal/mol
32. Q17N :: 3.69 kcal/mol
33. K30W :: 4.64 kcal/mol
34. R26Y :: 3.53 kcal/mol
35. E40W :: 3.95 kcal/mol
36. K11Q :: 3.45 kcal/mol
37. S18V :: 3.94 kcal/mol
38. T34V :: 4.08 kcal/mol
39. N20R :: 3.5 kcal/mol
40. R68Y :: 3.32 kcal/mol
41. K13I :: 4.04 kcal/mol
42. R27L :: 3.53 kcal/mol
43. Q31C :: 3.92 kcal/mol
44. Q8V :: 3.31 kcal/mol
45. K64T :: 4.29 kcal/mol
46. S21D :: 2.23 kcal/mol
